System: human growth hormone secretagogue receptor (hGHS-R1a) (Homo sapiens, UniProt Q92847)
Construct: purchased PerkinElmer BioSignal #RBHGHSM, lot#1887; host or cells: HEK-293, stably transfected
Sequence (Q92847 whole entry): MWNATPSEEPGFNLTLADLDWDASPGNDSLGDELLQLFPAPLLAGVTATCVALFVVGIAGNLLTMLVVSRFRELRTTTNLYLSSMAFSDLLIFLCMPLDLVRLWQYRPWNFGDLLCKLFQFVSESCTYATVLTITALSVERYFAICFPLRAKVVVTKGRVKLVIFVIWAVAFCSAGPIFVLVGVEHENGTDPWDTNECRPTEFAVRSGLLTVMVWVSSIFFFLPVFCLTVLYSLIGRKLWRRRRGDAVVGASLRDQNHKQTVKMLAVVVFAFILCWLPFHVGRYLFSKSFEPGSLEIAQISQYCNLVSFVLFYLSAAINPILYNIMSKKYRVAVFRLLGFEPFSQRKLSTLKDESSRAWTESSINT
Measurement Description: Competitive radioligand binding assay (ghrelin receptor), [125I]-ghrelin displacement
Run Conditions: Table 4; binding at human ghrelin receptor; TFA salts unless otherwise noted; read-out: Ki
Protocol: The competitive binding assay at the human growth hormone secretagogue receptor (hGHS-R1a) was carried out analogously to assays described in the literature. Multiscreen Harvest plates-GF/C (Millipore, #MAHFC1H60) • 4. […] Plates were sealed with TopSeal-A, vortexed gently and incubated at rt for 30 min. […] Results were expressed as counts per minute (cpm). Data were analyzed by GraphPad Prism (GraphPad Software, San Diego, Calif.) using a variable slope non-linear regression analysis. […]
Reported Ki by item:

>  <Compound>
CCC(C)C1NCCc2ccccc2CCCNC(=O)C(Cc2ccccc2)NC(=O)C(C)N(C)C1=O (stereo not drawn)

>  <Ki>
100 to 1000 nM

$$$$
>  <Compound>
CC1C(=O)NC(Cc2ccc(F)cc2)C(=O)NCC#Cc2ccccc2OCCNC(C2CC2)C(=O)N1C (stereo not drawn)

>  <Ki>
10 to 100 nM

$$$$
>  <Compound>
CCCC1NCCOc2ccccc2C=CCNC(=O)C(Cc2ccccc2)NC(=O)CN(C)C1=O (stereo not drawn)

>  <Ki>
10 to 100 nM

$$$$
>  <Compound>
CCC(C)C1NCCOc2ccc(F)cc2CCCNC(=O)C(Cc2cccc(Cl)c2)NC(=O)C2(CCCC2)NC1=O (stereo not drawn)

>  <Ki>
10 to 100 nM

$$$$
>  <Compound>
O=C1NC/C=C/c2ccccc2OCCNC2(CCCC2)C(=O)NC2(CCCC2)C(=O)N[C@H]1Cc1ccccc1

>  <Ki>
10 to 100 nM

$$$$

Ki lookup needed for CC1C(=O)NC(Cc2c(F)c(F)c(F)c(F)c2F)C(=O)NCCCc2ccccc2OCCNC(C2CC2)C(=O)N1C (stereo not drawn) , thanks.
0.1 to 10 nM

Let us now turn to CCC(C)C1NCCCc2ccccc2CCCCNC(=O)C(Cc2ccccc2)NC(=O)C(C)N(C)C1=O (stereo not drawn)
10 to 100 nM

Let us now turn to CCC(C)C1NCCOc2ccccc2CCCNC(=O)C(Cc2cccs2)NC(=O)C(C)N(C)C1=O (stereo not drawn)
10 to 100 nM

Let us now turn to CC(C)C1NCCOc2ccccc2C=CCNC(=O)C(Cc2ccccc2)NC(=O)C2(CCOCC2)NC1=O (stereo not drawn)
100 to 1000 nM

Let us now turn to COc1ccc(CC2NC(=O)C3(CCCC3)NC(=O)C(CC(C)C)NCCOc3ccccc3C=CCNC2=O)cc1 (stereo not drawn)
10 to 100 nM

Let us now turn to CC(C)CC1NCCOc2ccccc2C=CCNC(=O)C(CC(C)C)NC(=O)C2(CCCC2)NC1=O (stereo not drawn)
100 to 1000 nM

Let us now turn to CCC(C)C1NCCOc2ccc(C(=O)O)cc2CCCNC(=O)C(Cc2ccccc2)NC(=O)C(C)N(C)C1=O (stereo not drawn)
100 to 1000 nM

Let us now turn to CCC(C)C1NCCOc2ccccc2C2CC2CNC(=O)C(Cc2cccc(Cl)c2)NC(=O)C2(CCCC2)NC1=O (stereo not drawn)
0.1 to 10 nM

Let us now turn to CCC(C)C1NCc2ccccc2CC=CCNC(=O)C(Cc2ccccc2)NC(=O)C(C)N(C)C1=O (stereo not drawn)
100 to 1000 nM

Let us now turn to CCC(C)C1NCCOc2ccccc2CCCNC(=O)C(Cc2cccnc2)NC(=O)C(C)N(C)C1=O (stereo not drawn)
10 to 100 nM

###

Reported pEC50 by item:
System: human ghrelin receptor (hGHS-R1a) (Homo sapiens, UniProt Q92847)
Sequence (Q92847 whole entry): as above
Run Conditions: Table 4; functional (agonist) activity at human ghrelin receptor; TFA salts unless otherwise noted
pEC50: −log10 of the molar value.

pEC50 lookup needed for CCC(C)C1NCCOc2ccccc2CCCNC(=O)C(Cc2ccc(Cl)cc2)NC(=O)C(C)N(C)C1=O (stereo not drawn) , thanks.
7.00 to 9.00

Let us now turn to C[C@H]1NC(=O)C2(CCCC2)NCCOc2ccccc2C=CCNC(=O)[C@H](Cc2cccc(Cl)c2)NC1=O (stereo in doubt)
7.00 to 9.00

Let us now turn to `O=C1NC/C=C/c2ccccc2OCCNC2(CCCC2)C(=O)NC2(CCCC2)C(=O)N[C@H]1Cc1ccccc1`
7.00 to 9.00

###

System: human ghrelin receptor (hGHS-R1a) (Homo sapiens)
Measurement Description: cell-based
pEC50: −log10 of the molar value.
Measured Quantity: pEC50

Field: example entries. Status: answers known.
>  <Compound>
CC(C)C1NCCOc2ccccc2C=CCNC(=O)C(Cc2ccccc2)NC(=O)C2(CCOCC2)NC1=O (stereo not drawn) [compound 140]

>  <Measured Quantity>
pEC50

>  <Reported Value>
6.00 to 7.00

$$$$
>  <Compound>
CCCC1NCCOc2ccccc2C=CCNC(=O)C(Cc2ccccc2)NC(=O)C(C)N(C)C1=O (stereo not drawn) [compound 39]

>  <Measured Quantity>
pEC50

>  <Reported Value>
6.00 to 7.00

$$$$
>  <Compound>
CC1C(=O)NC(Cc2ccc(F)cc2)C(=O)NCC#Cc2ccccc2OCCNC(C2CC2)C(=O)N1C (stereo not drawn) [compound 354]

>  <Measured Quantity>
pEC50

>  <Reported Value>
7.00 to 9.00

$$$$
>  <Compound>
CCC(C)C1NCCOc2ccc(F)cc2CCCNC(=O)C(Cc2cccc(Cl)c2)NC(=O)C2(CCCC2)NC1=O (stereo not drawn) [compound 382]

>  <Measured Quantity>
pEC50

>  <Reported Value>
6.00 to 7.00

$$$$
>  <Compound>
CCC(C)C1NCc2ccccc2CC=CCCNC(=O)C(Cc2ccccc2)NC(=O)C(C)N(C)C1=O (stereo not drawn) [compound 195]

>  <Measured Quantity>
pEC50

>  <Reported Value>
7.00 to 9.00

$$$$
>  <Compound>
COc1ccc(CC2NC(=O)C3(CCCC3)NC(=O)C(CC(C)C)NCCOc3ccccc3C=CCNC2=O)cc1 (stereo not drawn) [compound 156]

>  <Measured Quantity>
pEC50

>  <Reported Value>
7.00 to 9.00

$$$$

Then this compound:
pEC50 lookup needed for CCCC1NCCOc2ccccc2CCCNC(=O)C(Cc2ccc(O)cc2)NC(=O)CN(C)C1=O (stereo not drawn) [compound 7] , thanks.
7.00 to 9.00

###

System: human growth hormone secretagogue receptor (hGHS-R1a) (Homo sapiens, UniProt Q92847)
Construct: purchased PerkinElmer BioSignal #RBHGHSM, lot#1887; host or cells: HEK-293, stably transfected
Measurement Description: Competitive radioligand binding assay (ghrelin receptor), [125I]-ghrelin displacement
Run Conditions: Table 4; binding at human ghrelin receptor; TFA salts unless otherwise noted; read-out: Ki
Measured Quantity: Ki

>  <Compound>
CCC(C)C1NCCOc2ccccc2CCCNC(=O)C(CC(C)C)NC(=O)C(C)N(C)C1=O (centres unmarked) [compound 176]

>  <Reported Value>
10 to 100 nM

$$$$
>  <Compound>
CCC(C)C1NCc2ccccc2CCCCCNC(=O)C(Cc2ccccc2)NC(=O)C(C)N(C)C1=O (centres unmarked) [compound 38]

>  <Reported Value>
10 to 100 nM

$$$$
>  <Compound>
CCCC1NCCOc2ccccc2C=CCNC(=O)C(Cc2ccccc2)NC(=O)C(C)N(C)C1=O (centres unmarked) [compound 39]

>  <Reported Value>
0.1 to 10 nM

$$$$
>  <Compound>
CCCC1NCCOc2ccccc2CCCNC(=O)C(Cc2ccc(O)cc2)NC(=O)CN(C)C1=O (centres unmarked) [compound 7]

>  <Reported Value>
100 to 1000 nM

$$$$
>  <Compound>
CCC(C)C1NCc2ccccc2CC=CCCNC(=O)C(Cc2ccccc2)NC(=O)C(C)N(C)C1=O (centres unmarked) [compound 195]

>  <Reported Value>
10 to 100 nM

$$$$

Ki lookup needed for CCC(C)C1NCCOc2ccccc2CCCNC(=O)C(Cc2ccc(-c3ccccc3)cc2)NC(=O)C(C)N(C)C1=O (centres unmarked) [compound 28] , thanks.
10 to 100 nM

Let us now turn to CCC(C)C1NCCOc2ccccc2CCNC(=O)C(Cc2ccccc2)NC(=O)C(C)N(C)C1=O (centres unmarked) [compound 178]
100 to 1000 nM

Let us now turn to CCC(C)C1NCCCCCCCCNC(=O)C(Cc2cccc(Cl)c2)NC(=O)C2(CCCC2)NC1=O (centres unmarked) [compound 363]
100 to 1000 nM

###

System: human growth hormone secretagogue receptor (hGHS-R1a) (Homo sapiens, UniProt Q92847)
Construct: purchased PerkinElmer BioSignal #RBHGHSM, lot#1887; host or cells: HEK-293, stably transfected
Measurement Description: Competitive radioligand binding assay (ghrelin receptor), [125I]-ghrelin displacement
Run Conditions: Table 3D; binding at human ghrelin receptor, [125I]-ghrelin displacement; read-out: Ki
Reported Ki by item:

>  <Molecule>
CC1CNC(C2CC2)C(=O)N(C)C(C)C(=O)NC(Cc2ccccc2)C(=O)NCCCc2ccc(F)cc2O1 (stereo not shown) [compound 435]

>  <Measured Quantity>
Ki

>  <Reported Value>
0.01 to 0.1 µM

$$$$
>  <Molecule>
CCC(C)C1NCCOc2ccccc2CCCNC(=O)C(Cc2ccc(F)cc2)NC(=O)C(COCc2ccccc2)N(C)C1=O (stereo not shown) [compound 440]

>  <Measured Quantity>
Ki

>  <Reported Value>
0.1 to 10 µM

$$$$

Find the measured Ki: item CCC(C)C1NCCCCCNC(=O)C(Cc2cccc(Cl)c2)NC(=O)C2(CCCC2)NC1=O (stereo not shown) [compound 447] , target or system human growth hormone secretagogue receptor (hGHS-R1a) (Homo sapiens, UniProt Q92847).
1 to 10 µM

Let us now turn to CC(C)CC1NCC(C)Oc2ccccc2CCCNC(=O)C(Cc2cccc(Cl)c2)NC(=O)C2(CCCC2)NC1=O (stereo not shown) [compound 438]
1 to 10 µM
